- Target under test: Signal transducer and activator of transcription 3 (Homo sapiens) (UniProt P40763)
- Sequence (P40763 whole entry, looked up): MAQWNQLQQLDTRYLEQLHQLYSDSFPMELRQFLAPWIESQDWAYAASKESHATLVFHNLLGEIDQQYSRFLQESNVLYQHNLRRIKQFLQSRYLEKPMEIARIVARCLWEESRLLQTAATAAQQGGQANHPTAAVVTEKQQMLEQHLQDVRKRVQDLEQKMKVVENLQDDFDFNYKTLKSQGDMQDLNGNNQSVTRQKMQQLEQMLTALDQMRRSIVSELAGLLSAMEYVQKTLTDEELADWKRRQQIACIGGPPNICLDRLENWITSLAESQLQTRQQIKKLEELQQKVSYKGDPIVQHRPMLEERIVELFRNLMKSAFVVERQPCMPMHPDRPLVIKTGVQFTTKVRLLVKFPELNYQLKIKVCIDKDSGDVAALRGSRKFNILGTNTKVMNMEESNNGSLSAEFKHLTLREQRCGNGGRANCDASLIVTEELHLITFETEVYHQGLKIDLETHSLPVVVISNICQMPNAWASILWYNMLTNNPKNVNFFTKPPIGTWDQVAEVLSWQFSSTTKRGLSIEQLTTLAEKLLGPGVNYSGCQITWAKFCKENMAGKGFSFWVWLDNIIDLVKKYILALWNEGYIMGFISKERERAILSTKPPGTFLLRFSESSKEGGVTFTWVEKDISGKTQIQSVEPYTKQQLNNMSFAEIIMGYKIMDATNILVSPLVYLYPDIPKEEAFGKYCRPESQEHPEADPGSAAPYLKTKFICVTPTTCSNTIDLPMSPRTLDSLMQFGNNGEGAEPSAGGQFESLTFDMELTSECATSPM
- Protocol text: ATG_STAT3_CIS: Attagene CIS-FACTORIAL HepG2 Assay for human Signal Transducer and Activator of Transcription 3 (STAT3) (AID 2282963)
- Experimental conditions: HepG2, Attagene cis-factorial STAT3 reporter transcription; actives raise or lower the signal
Calls of active or inactive are those of the source. The calls were made as follows: active = hit-call score of the fitted dose curve at least 0.9, where 1 is the maximum; inactive = score below 0.9.
Property: outcome

Use these answered entries as a reference point.
- Compound: "CCCCCCCCCCCCC"
  Target under test: "Signal transducer and activator of transcription 3 (Homo sapiens) (UniProt P40763)"
  Property: "outcome"
  Measured value: "inactive"
- Compound: "Cc1ccc(S(=O)(=O)N=C=O)cc1"
  Target under test: "Signal transducer and activator of transcription 3 (Homo sapiens) (UniProt P40763)"
  Property: "outcome"
  Measured value: "inactive"
- Compound: "CC1(C)CC(O)CC(C)(C)N1[O]"
  Target under test: "Signal transducer and activator of transcription 3 (Homo sapiens) (UniProt P40763)"
  Property: "outcome"
  Measured value: "inactive"
- Compound: "CC(C)CCOCc1ccccc1"
  Target under test: "Signal transducer and activator of transcription 3 (Homo sapiens) (UniProt P40763)"
  Property: "outcome"
  Measured value: "inactive"

Q) What outcome value was documented for this compound, COc1cc(C)ccc1O ?
A) inactive

Q) Same read-out for O=C1CCCCCCCCCCC1 ?
A) inactive

Q) Same read-out for CCCSSCCC ?
A) inactive

* * *

- Protocol text: ATG_PBREM_CIS: Attagene CIS-FACTORIAL HepG2 Assay for human Phenobarbital-responsive Enhancer Module (PBREM) (AID 2282955)
- Experimental conditions: HepG2 PBREM cis-reporter, Attagene multiplexed transcription; actives raise or lower the signal
The source made the active and inactive calls. Rule for the calls: active = hit-call score of the fitted dose curve at least 0.9, where 1 is the maximum; inactive = score below 0.9.
// allowed return values: true = active, false = inactive

Solved entries (count: 6):
- Compound: "CCCCCCCCC(CO)CCCCCC (stereo not given)"
  Category label: "true"
- Compound: "CN(C)c1ccc2nc3ccc(=[N+](C)C)cc-3sc2c1"
  Category label: "false"
- Compound: "O=C(C=Cc1ccccc1)OCCc1ccccc1"
  Category label: "false"
- Compound: "CCCCCOC(=O)CCCCC"
  Category label: "false"
- Compound: "O=C(Cl)c1ccc(C(=O)Cl)cc1"
  Category label: "false"
- Compound: "CC(=O)OC(C)c1ccccc1 (stereo not given)"
  Category label: "false"

Q) Field: outcome | Entry: CC(=O)CCC1=C(C)CCCC1(C)C
A) false

Q) Same read-out for CCCCCCOc1ccc(N)cc1 ?
A) false

* * *

- Read-out: Urokinase-type plasminogen activator receptor (uPAR), PLAUR (gene 5329)
- Protocol text: BSK_4H_uPAR: BioMAP Diversity Plus: 4H Assay for Urokinase-type plasminogen activator receptor (uPAR) Biomarker Activity (AID 2283030)
- Experimental conditions: primary human endothelial cells (HUVEC); actives raise or lower the signal
The source made the active and inactive calls. The calls were made as follows: active = hit-call score of the fitted dose curve at least 0.9, where 1 is the maximum; inactive = score below 0.9.
// allowed return values: true for active, false for inactive

- Molecule: "CCN1CN(CC)CN(CC)C1"
  Category label: "false"
- Molecule: "CC1(C)CC(O)CC(C)(C)N1[O]"
  Category label: "false"

Q) Field: outcome | Entry: CC=C(C)C=CC=C(C)C
A) false

Q) Same read-out for C=CC(=O)OCC(C)OCC(C)OCC(C)OC(=O)C=C (stereo not given) ?
A) true

Q) Same read-out for CCCCC1C(=O)N(c2ccccc2)N(c2ccccc2)C1=O ?
A) false

Q) Same read-out for C=CC(=O)NCOCCCC ?
A) false

Values from PubChem BioAssay (EPA / NIEHS)
